Taken from paper PMC9788556.

tested_on: T1, Pfs230 D1D2 (aa 587–889) (Plasmodium falciparum, UniProt P68874 587-889)
T1 chain: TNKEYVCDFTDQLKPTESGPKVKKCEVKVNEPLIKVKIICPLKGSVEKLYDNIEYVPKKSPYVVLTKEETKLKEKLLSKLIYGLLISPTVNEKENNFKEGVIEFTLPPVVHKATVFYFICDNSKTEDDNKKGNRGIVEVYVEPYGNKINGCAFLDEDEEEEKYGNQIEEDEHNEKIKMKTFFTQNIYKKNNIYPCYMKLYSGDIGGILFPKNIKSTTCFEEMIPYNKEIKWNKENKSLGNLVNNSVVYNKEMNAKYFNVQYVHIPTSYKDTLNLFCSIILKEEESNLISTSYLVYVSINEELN
experimental_protocol: BLI
# maps each entry to its Kd
Report only the number, with the unit nM understood.

Use these answered entries as a reference point.
binder: nanobody F5 (VHH) VHH: QVQLQESGGGLVQPGGSLRLSCAASGFTLDRYAIGWFRQAPGKEREGVSCISSSDGSTYYADSVKGRFTISRDNAKNTVYLQMNSLKPEDTAVYYCARDHGPCTVLADILYDYGMDYWGKGTQVTVSS
readout_kind: Kd
val: 1.22
--
binder: nanobody E11 (VHH) VHH: QVQLQESGGGLVQPGGSLRLSCAASGFTSDYYGIGWFRQAPGKEREGVACISSSDGSTYYADSVKGRSTISRDNAKNTVYLQMNSLKPEDTAVYYCAADLSGIGCTTAQAMDVIGDFGDFGSWGQGTQVTVSS
readout_kind: Kd
val: 2.54

Next, consider the following binder.
# Kd of nanobody B4 (VHH) VHH: QVQLQESGGGLVQPGGSLRLSCAASGFTLDYYGIGWFRQAPGKEREGVSCISSSDGSTYYADSVKGRFTISRDNAKNTVYLQMNSLKPEDTAVYYCAADLTGIGCTTAQAMGVIGDFGDFGSWGQGTQVTVSS = 4.8
